- System: 883617-216-R-J1-PDC complex spheroids, growth, % test/control;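 further: exposure lasted 7 days after dosing on day 3 of spheroid growth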
- assay-protocol: Anticancer human tumor 883617-216-R-J1-PDC patient-derived bladder carcinoma cell line growth inhibition [AhR]
- measurement-parameters: second compound 3.16 µM; first compound 0.0316 µM; active compounds read low
Here, each record is paired with measured viability, T/C data.
readout-kind: viability, T/C (%)

molecule: Nc1ncn(C2CC(O)C(CO)O2)c(=O)n1 (stereo not drawn) + CC(CO)NC(=O)c1cc(-c2ccc(Cl)cc2)nn(-c2cnn(C)c2)c1=O
readout-kind: viability, T/C
unit-tag: %
value-observed: 81

molecule: Nc1ccccc1NC(=O)c1ccc(CNC(=O)OCc2cccnc2)cc1 + CC(CO)NC(=O)c1cc(-c2ccc(Cl)cc2)nn(-c2cnn(C)c2)c1=O
readout-kind: viability, T/C
unit-tag: %
value-observed: 73.6

molecule: CC1COCCN1c1cc(C2(S(C)(=N)=O)CC2)nc(-c2ccnc3[nH]ccc23)n1 (stereo not drawn) + Cc1cncc(-c2nc(NCCc3c[nH]c4ccccc34)c3ncn(C(C)C)c3n2)c1
readout-kind: viability, T/C
unit-tag: %
value-observed: 103

molecule: O=C(c1cc(Cc2n[nH]c(=O)c3ccccc23)ccc1F)N1CCN(C(=O)C2CC2)CC1 + Cc1ccccc1N=Nc1ccc(NC(=O)c2ccnn2C)c(C)c1
readout-kind: viability, T/C
unit-tag: %
value-observed: 82.8

molecule: O=C(c1cc(Cc2n[nH]c(=O)c3ccccc23)ccc1F)N1CCN(C(=O)C2CC2)CC1 + Cc1cncc(-c2nc(NCCc3c[nH]c4ccccc34)c3ncn(C(C)C)c3n2)c1
readout-kind: viability, T/C
unit-tag: %
value-observed: 99.9

molecule: Nc1ccccc1NC(=O)c1ccc(CNC(=O)OCc2cccnc2)cc1 + Cc1ccccc1N=Nc1ccc(NC(=O)c2ccnn2C)c(C)c1
readout-kind: viability, T/C
unit-tag: %
value-observed: 80.2

molecule: CC1COCCN1c1cc(C2(S(C)(=N)=O)CC2)nc(-c2ccnc3[nH]ccc23)n1 (stereo not drawn) + Cc1ccccc1N=Nc1ccc(NC(=O)c2ccnn2C)c(C)c1
readout-kind: viability, T/C
unit-tag: %
value-observed: 86.5

molecule: CC1(C)CCC(CN2CCN(c3ccc(C(=O)NS(=O)(=O)c4ccc(NCC5CCOCC5)c([N+](=O)[O-])c4)c(Oc4cnc5[nH]ccc5c4)c3)CC2)=C(c2ccc(Cl)cc2)C1 + Cc1cncc(-c2nc(NCCc3c[nH]c4ccccc34)c3ncn(C(C)C)c3n2)c1
readout-kind: viability, T/C
unit-tag: %
value-observed: 99.1

molecule: O=C(C=Cc1cccc(S(=O)(=O)Nc2ccccc2)c1)NO + Cc1cncc(-c2nc(NCCc3c[nH]c4ccccc34)c3ncn(C(C)C)c3n2)c1
readout-kind: viability, T/C
unit-tag: %
value-observed: 123

molecule: NS(=O)(=O)OCC1CC(n2ccc3c(NC4CCc5ccccc54)ncnc32)CC1O (stereo not drawn) + CC(CO)NC(=O)c1cc(-c2ccc(Cl)cc2)nn(-c2cnn(C)c2)c1=O
readout-kind: viability, T/C
unit-tag: %
value-observed: 75.8

molecule: Nc1ccn(C2OC(CO)C(O)C2(F)F)c(=O)n1 (stereo not drawn) + Cc1ccccc1N=Nc1ccc(NC(=O)c2ccnn2C)c(C)c1
readout-kind: viability, T/C
unit-tag: %
value-observed: 26.1

molecule: COc1cc(C2c3cc4c(cc3C(OC3OC5COC(C)OC5C(O)C3O)C3COC(=O)C23)OCO4)cc(OC)c1O (stereo not drawn) + Cc1ccccc1N=Nc1ccc(NC(=O)c2ccnn2C)c(C)c1
readout-kind: viability, T/C
unit-tag: %
value-observed: 73

molecule: COc1ccc([C@@H](O)c2cc(-c3ncnc4cc(N5CCOCC5)ccc34)c(F)cc2Cl)nn1 + Cc1cncc(-c2nc(NCCc3c[nH]c4ccccc34)c3ncn(C(C)C)c3n2)c1
readout-kind: viability, T/C
unit-tag: %
value-observed: 103

molecule: O=C(c1cc(Cc2n[nH]c(=O)c3ccccc23)ccc1F)N1CCN(C(=O)C2CC2)CC1 + CC(CO)NC(=O)c1cc(-c2ccc(Cl)cc2)nn(-c2cnn(C)c2)c1=O
readout-kind: viability, T/C
unit-tag: %
value-observed: 120

molecule: NS(=O)(=O)OCC1CC(n2ccc3c(NC4CCc5ccccc54)ncnc32)CC1O (stereo not drawn) + Cc1cncc(-c2nc(NCCc3c[nH]c4ccccc34)c3ncn(C(C)C)c3n2)c1
readout-kind: viability, T/C
unit-tag: %
value-observed: 141

molecule: COc1ccc([C@@H](O)c2cc(-c3ncnc4cc(N5CCOCC5)ccc34)c(F)cc2Cl)nn1 + CC(CO)NC(=O)c1cc(-c2ccc(Cl)cc2)nn(-c2cnn(C)c2)c1=O
readout-kind: viability, T/C
unit-tag: %
value-observed: 64.8

molecule: CC(C)c1c(-c2ccccc2)nc2c(C#N)c[nH]n2c1=O + Cc1cncc(-c2nc(NCCc3c[nH]c4ccccc34)c3ncn(C(C)C)c3n2)c1
readout-kind: viability, T/C
unit-tag: %
value-observed: 105

molecule: Cn1ncnc1C1c2n[nH]c(=O)c3cc(F)cc(c23)NC1c1ccc(F)cc1 (stereo not drawn) + CC(CO)NC(=O)c1cc(-c2ccc(Cl)cc2)nn(-c2cnn(C)c2)c1=O
readout-kind: viability, T/C
unit-tag: %
value-observed: 50.2

molecule: COc1cccc2c1C(=O)c1c(O)c3c(c(O)c1C2=O)CC(O)(C(=O)CO)CC3OC1CC(N)C(O)C(C)O1 (stereo not drawn) + CC(CO)NC(=O)c1cc(-c2ccc(Cl)cc2)nn(-c2cnn(C)c2)c1=O
readout-kind: viability, T/C
unit-tag: %
value-observed: 91.5

molecule: CC1(C)CCC(CN2CCN(c3ccc(C(=O)NS(=O)(=O)c4ccc(NCC5CCOCC5)c([N+](=O)[O-])c4)c(Oc4cnc5[nH]ccc5c4)c3)CC2)=C(c2ccc(Cl)cc2)C1 + Cc1ccccc1N=Nc1ccc(NC(=O)c2ccnn2C)c(C)c1
readout-kind: viability, T/C
unit-tag: %
value-observed: 85.7

molecule: O=C(C=Cc1cccc(S(=O)(=O)Nc2ccccc2)c1)NO + CC(CO)NC(=O)c1cc(-c2ccc(Cl)cc2)nn(-c2cnn(C)c2)c1=O
readout-kind: viability, T/C
unit-tag: %
value-observed: 104

molecule: COc1cc(C2c3cc4c(cc3C(OC3OC5COC(C)OC5C(O)C3O)C3COC(=O)C23)OCO4)cc(OC)c1O (stereo not drawn) + CC(CO)NC(=O)c1cc(-c2ccc(Cl)cc2)nn(-c2cnn(C)c2)c1=O
readout-kind: viability, T/C
unit-tag: %
value-observed: 81.1

molecule: Cn1ncnc1C1c2n[nH]c(=O)c3cc(F)cc(c23)NC1c1ccc(F)cc1 (stereo not drawn) + Cc1cncc(-c2nc(NCCc3c[nH]c4ccccc34)c3ncn(C(C)C)c3n2)c1
readout-kind: viability, T/C
unit-tag: %
value-observed: 98.2
